test_target: Acetylcholinesterase (Homo sapiens, UniProt P22303)
Sequence (P22303 whole entry): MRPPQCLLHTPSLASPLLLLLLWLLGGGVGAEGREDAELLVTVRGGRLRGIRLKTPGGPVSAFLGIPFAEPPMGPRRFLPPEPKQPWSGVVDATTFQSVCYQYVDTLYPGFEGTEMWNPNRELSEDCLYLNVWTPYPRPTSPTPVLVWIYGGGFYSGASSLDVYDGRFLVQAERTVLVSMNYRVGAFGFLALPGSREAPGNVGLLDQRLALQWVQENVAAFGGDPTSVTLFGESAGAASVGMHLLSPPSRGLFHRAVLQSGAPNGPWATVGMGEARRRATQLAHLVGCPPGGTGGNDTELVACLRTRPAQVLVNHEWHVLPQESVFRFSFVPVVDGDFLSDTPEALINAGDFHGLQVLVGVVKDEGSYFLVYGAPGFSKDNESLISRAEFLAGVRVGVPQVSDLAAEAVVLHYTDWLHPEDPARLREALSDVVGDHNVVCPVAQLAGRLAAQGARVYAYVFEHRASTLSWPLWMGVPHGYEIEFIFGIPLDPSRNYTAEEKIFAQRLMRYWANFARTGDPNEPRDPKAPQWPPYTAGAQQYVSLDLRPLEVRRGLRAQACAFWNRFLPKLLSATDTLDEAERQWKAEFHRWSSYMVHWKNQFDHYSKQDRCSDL
method: Inhibition of AChE (unknown origin) by Ellman's method
pIC50: −log10 of the molar value.
Please note: rule met applies when pIC50 is 6 or greater, and rule not met applies otherwise.

[[record]]
smiles_string = "Cn1c2ccccc2c2cc[n+](-c3ccc(Br)cc3Br)cc21"
test_target = "Acetylcholinesterase (Homo sapiens, UniProt P22303)"
class_label = "rule met"

[[record]]
smiles_string = "CCOC(=O)[n+]1ccc2c([nH]c3cc(OC)ccc32)c1C"
test_target = "Acetylcholinesterase (Homo sapiens, UniProt P22303)"
class_label = "rule met"

[[record]]
smiles_string = "CC(C)n1c2ccccc2c2cc[n+](-c3ccccc3)cc21"
test_target = "Acetylcholinesterase (Homo sapiens, UniProt P22303)"
class_label = "rule not met"

[[record]]
smiles_string = "Cc1ccc2c(c1)c1cc[n+](-c3ccccc3)cc1n2C"
test_target = "Acetylcholinesterase (Homo sapiens, UniProt P22303)"
class_label = "rule met"


--- query ---
Problem: Is it the case that C[n+]1ccc2c(c1)[nH]c1ccccc12 has pIC50 reaching or exceeding 6?
Result: rule not met

###

test_target: 5-hydroxytryptamine receptor 2C (Homo sapiens, UniProt P28335)
Sequence (P28335 whole entry): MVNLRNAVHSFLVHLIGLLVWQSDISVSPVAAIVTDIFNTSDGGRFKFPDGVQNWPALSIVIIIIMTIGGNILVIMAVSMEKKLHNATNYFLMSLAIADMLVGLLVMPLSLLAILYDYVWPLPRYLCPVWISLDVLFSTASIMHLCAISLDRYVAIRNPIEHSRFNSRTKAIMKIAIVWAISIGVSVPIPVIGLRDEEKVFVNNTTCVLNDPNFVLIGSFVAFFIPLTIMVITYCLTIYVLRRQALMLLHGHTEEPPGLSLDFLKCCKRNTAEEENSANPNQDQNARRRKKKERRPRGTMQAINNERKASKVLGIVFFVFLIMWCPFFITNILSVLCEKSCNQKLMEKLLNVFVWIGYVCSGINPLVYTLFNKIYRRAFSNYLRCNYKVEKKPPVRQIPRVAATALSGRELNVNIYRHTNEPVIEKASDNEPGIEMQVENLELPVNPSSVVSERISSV
method: Binding affinity to 5-HT2C (unknown origin) assessed as inhibition constant
measure: Ki (nM)
Answers are plain numbers, in nM.

Before answering, review these 3 worked examples.
[[record]]
smiles_string = "COc1cccc2[nH]c3c(c12)CCN=C3C"
recorded_number = 65

[[record]]
smiles_string = "COc1ccc2[nH]c3c(-c4cn(C)c5ccccc45)nccc3c2c1"
recorded_number = 200

[[record]]
smiles_string = "COc1cccc2[nH]c3c(c12)CCN=C3"
recorded_number = 65


// input: 2 molecules below; output: Ki for each
1. Oc1ccc2[nH]c3c(-c4c[nH]c5ccccc45)nccc3c2c1
2. c1ccc2c(-c3nccc4c3[nH]c3ccccc34)c[nH]c2c1

Result:
1: 170; 2: 170

###

Below are pIC50 values measured for Amine oxidase [flavin-containing] B (Homo sapiens, UniProt P27338).
Give bare numbers, as −log10 of the molar value.

[[record]]
smiles_string = "CCCCn1c2cc(OCc3cn(Cc4ccccc4Cl)nn3)ccc2c2ccnc(C)c21"
recorded_number = 6.44

[[record]]
smiles_string = "COC(=O)C1=CN2CCc3c([nH]c4ccccc34)[C@@H]2C[C@H]1C1=CCOC1=O"
recorded_number = 4.47


Problem: Given the molecule C/C=C(\C=O)[C@@H]1C[C@H]2c3[nH]c4ccccc4c3CCN2C=C1C(=O)OC , write its reported pIC50.
Result: 3.89

###

test_target: Cholinesterase (Homo sapiens)
Sequence (P06276 whole entry): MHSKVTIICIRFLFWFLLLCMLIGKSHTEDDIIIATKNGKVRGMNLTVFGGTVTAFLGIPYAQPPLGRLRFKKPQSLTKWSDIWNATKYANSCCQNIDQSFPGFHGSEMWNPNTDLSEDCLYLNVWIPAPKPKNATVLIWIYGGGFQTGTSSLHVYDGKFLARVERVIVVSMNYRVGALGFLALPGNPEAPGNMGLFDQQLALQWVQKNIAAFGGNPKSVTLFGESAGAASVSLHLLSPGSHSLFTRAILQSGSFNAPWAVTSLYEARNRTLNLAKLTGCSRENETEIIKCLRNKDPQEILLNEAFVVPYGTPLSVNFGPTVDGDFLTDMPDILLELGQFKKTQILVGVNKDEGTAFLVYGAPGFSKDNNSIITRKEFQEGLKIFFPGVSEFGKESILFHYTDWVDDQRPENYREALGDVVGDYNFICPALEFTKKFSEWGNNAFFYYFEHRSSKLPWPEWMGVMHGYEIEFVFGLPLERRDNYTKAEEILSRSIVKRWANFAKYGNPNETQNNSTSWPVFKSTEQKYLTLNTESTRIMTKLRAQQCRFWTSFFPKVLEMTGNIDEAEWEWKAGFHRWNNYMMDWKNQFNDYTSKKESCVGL
method: Inhibition of BuChE (unknown origin)
Define the label as yes (1) when IC50 is strictly less than 4 µM and as no (0) in all remaining cases.

Would you please look over these solved cases?
[[record]]
compound = "COc1ccc2c(c1)[nH]c1c(C(C)=O)nccc12"
class_label = "no (0)"

[[record]]
compound = "C[n+]1ccc2c(c1)[nH]c1ccccc12"
class_label = "yes (1)"

[[record]]
compound = "C[n+]1ccc2c3ccccc3n(CCc3ccccc3)c2c1"
class_label = "no (0)"

[[record]]
compound = "Cc1ccc2c(c1)c1cc[n+](-c3ccccc3)cc1n2C"
class_label = "no (0)"

[[record]]
compound = "Cc1nccc2c1[nH]c1ccccc12"
class_label = "no (0)"

[[record]]
compound = "c1ccc2c(c1)[nH]c1cnccc12"
class_label = "no (0)"


Problem: Lab note: IC50 threshold 4 µM. Does this compound come in strictly under it? CC1c2[nH]c3ccccc3c2CCN1C(=O)/C=C/c1ccc(O)c(O)c1 (stereo unspecified)
Result: yes (1)

Problem: Lab note: IC50 threshold 4 µM. Does this compound come in strictly under it? O=c1c2cc(NS(=O)(=O)c3ccccc3OC(F)(F)F)ccc2cc2n1CCc1c-2[nH]c2ccccc12
Result: yes (1)

Problem: Lab note: IC50 threshold 4 µM. Does this compound come in strictly under it? c1ccc2c(c1)[nH]c1c[n+](CCCCCCCCCCCC[n+]3ccc4c(c3)[nH]c3ccccc34)ccc12
Result: yes (1)

Problem: Lab note: IC50 threshold 4 µM. Does this compound come in strictly under it? CC(C)n1c2ccccc2c2cc[n+](-c3ccccc3)cc21
Result: no (0)

Problem: Lab note: IC50 threshold 4 µM. Does this compound come in strictly under it? CCOC(=O)[n+]1ccc2c([nH]c3cc(OC)ccc32)c1C
Result: yes (1)

###

test_target: Cyclin-dependent kinase 2 (Homo sapiens)
method: Inhibition of CDK2 (unknown origin)
measure: IC50 (µM)
Answers are plain numbers, in µM.

Problem: Given the compound COc1ccc2c(c1)[nH]c1c(C)nccc12 , write its reported IC50.
Result: 33

###

test_target: 5-hydroxytryptamine receptor 1B (Homo sapiens, UniProt P28222)
Sequence (P28222 whole entry): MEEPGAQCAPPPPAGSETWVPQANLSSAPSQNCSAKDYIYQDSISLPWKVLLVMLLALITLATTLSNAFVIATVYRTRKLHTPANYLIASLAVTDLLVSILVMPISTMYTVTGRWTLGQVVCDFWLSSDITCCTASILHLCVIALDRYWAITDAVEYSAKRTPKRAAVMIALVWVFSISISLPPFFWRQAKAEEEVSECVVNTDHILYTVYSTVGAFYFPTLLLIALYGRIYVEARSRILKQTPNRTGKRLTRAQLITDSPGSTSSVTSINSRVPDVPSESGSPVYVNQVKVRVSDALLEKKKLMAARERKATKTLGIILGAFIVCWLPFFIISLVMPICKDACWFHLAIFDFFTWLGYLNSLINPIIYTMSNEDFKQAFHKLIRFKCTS
method: Displacement of […] from human 5-HT1B expressed in human HEK cells assessed as inhibition constant by FLIPR assay
measure: Ki

Problem: Given the compound COc1ccc2c3c([nH]c2c1)C(C)=NCC3 , write its reported Ki.
Result: > 10 µM

###

test_target: 5-hydroxytryptamine receptor 1D (Homo sapiens, UniProt P28221)
Sequence (P28221 whole entry): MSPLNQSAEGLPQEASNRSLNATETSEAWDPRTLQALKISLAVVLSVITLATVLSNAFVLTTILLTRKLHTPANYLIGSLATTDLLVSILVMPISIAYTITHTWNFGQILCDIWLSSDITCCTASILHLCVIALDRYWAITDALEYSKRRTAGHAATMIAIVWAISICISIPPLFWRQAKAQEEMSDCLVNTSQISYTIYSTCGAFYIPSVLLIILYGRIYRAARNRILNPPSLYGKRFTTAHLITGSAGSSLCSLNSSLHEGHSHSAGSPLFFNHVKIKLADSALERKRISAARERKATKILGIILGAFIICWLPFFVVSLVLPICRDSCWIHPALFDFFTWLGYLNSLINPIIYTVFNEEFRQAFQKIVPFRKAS
measure: Ki

Problem: Given the molecule COc1ccc2c3c([nH]c2c1)C(C)=NCC3 [HARMALINE] , write its reported Ki.
Result: > 10 µM

###

test_target: Gamma-aminobutyric acid receptor subunit alpha-1 (Homo sapiens)
Sequence (P14867 whole entry): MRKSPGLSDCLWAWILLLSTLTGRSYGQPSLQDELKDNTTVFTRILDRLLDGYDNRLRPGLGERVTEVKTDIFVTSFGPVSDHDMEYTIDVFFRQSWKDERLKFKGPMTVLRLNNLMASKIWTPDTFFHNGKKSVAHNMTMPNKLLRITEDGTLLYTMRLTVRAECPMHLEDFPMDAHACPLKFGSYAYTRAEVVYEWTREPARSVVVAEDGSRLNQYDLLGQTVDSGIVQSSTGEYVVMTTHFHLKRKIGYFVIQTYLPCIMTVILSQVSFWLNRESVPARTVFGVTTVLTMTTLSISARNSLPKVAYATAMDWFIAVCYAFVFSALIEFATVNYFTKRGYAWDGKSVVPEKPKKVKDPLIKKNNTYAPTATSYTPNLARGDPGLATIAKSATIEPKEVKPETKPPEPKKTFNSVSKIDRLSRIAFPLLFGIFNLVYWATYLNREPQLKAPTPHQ
method: Binding affinity to human recombinant GABAA alpha1 receptor assessed as inhibition constant incubated for 1 hrs by liquid scintillation counting analysis
measure: pKi
Give bare numbers, as −log10 of the molar value.

Before answering, review these 4 worked examples.
[[record]]
compound = "COCc1c(C(=O)OC(C)C)ncc2[nH]c3ccc(OCc4ccccc4)cc3c12"
measure = "pKi"
recorded_number = 9.00

[[record]]
compound = "CCc1c(C(=O)OC)nc(C)c2[nH]c3cc(OC)c(OC)cc3c12"
measure = "pKi"
recorded_number = 8.22

[[record]]
compound = "CCCC(=O)c1cc2c(cn1)[nH]c1ccccc12"
measure = "pKi"
recorded_number = 8.70

[[record]]
compound = "c1ccc2c(c1)[nH]c1c2ncc2[nH]c3ccccc3c21"
measure = "pKi"
recorded_number = 9.00


// input: 7 compounds below; output: pKi for each
1. S=C=Nc1cc2c(cn1)[nH]c1ccccc12
2. c1ccc2c(c1)[nH]c1cnc3c4ccncc4[nH]c3c12
3. CCOC(=O)c1nc(C)c2[nH]c3cc(OC)c(OC)cc3c2c1CC
4. CC(OC(=O)c1cc2c(cn1)[nH]c1ccccc12)c1ccccc1 (stereo not given)
5. CCOC(=O)c1ncc2[nH]c3ccc(OCc4ccccc4)cc3c2c1COC
6. COC(=O)c1cc2c(cn1)[nH]c1ccc(NCc3ccccc3)cc12
7. CCOC(=O)c1cc2c(cn1)[nH]c1ccccc12

Result:
8.30
8.52
8.22
7.47
8.40
8.30
9.00

###

test_target: Gamma-aminobutyric acid receptor subunit alpha-2 (Homo sapiens, UniProt P47869)
Sequence (P47869 whole entry): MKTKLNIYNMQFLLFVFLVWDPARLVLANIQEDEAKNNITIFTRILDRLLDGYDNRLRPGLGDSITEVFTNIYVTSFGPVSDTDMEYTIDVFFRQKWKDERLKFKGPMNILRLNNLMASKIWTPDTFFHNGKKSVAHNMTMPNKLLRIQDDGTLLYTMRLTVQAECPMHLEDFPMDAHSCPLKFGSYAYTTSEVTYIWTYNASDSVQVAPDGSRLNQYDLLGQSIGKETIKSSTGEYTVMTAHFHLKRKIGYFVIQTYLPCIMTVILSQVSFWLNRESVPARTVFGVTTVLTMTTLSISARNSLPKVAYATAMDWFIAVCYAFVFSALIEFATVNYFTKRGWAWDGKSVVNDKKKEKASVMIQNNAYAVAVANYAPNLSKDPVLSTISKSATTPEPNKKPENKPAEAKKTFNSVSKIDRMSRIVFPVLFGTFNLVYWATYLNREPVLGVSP
method: Binding affinity to human recombinant GABAA alpha2 receptor assessed as inhibition constant incubated for 1 hrs by liquid scintillation counting analysis
measure: log10 Ki (log10 of the value in nM)
Please interpret these as log10 of Ki where Ki is in nM.

[[record]]
compound = "c1ccc2c(c1)[nH]c1cnc3c4ccncc4[nH]c3c12"
measure = "log10 Ki"
recorded_number = 1.38

[[record]]
compound = "c1ccc2c(c1)[nH]c1c2ncc2[nH]c3ccccc3c21"
measure = "log10 Ki"
recorded_number = 0.00

[[record]]
compound = "COC(=O)c1cc2c(cn1)[nH]c1ccc(NCc3ccccc3)cc12"
measure = "log10 Ki"
recorded_number = 1.48


// input: 2 compounds below; output: log10 Ki for each
1. CC(OC(=O)c1cc2c(cn1)[nH]c1ccccc12)c1ccccc1 (stereo unspecified)
2. CC(C)(C)OC(=O)c1cc2c(cn1)[nH]c1ccccc12

Result:
3.00
1.18

Problem: Given the compound COC(=O)c1cc2c(cn1)[nH]c1ccccc12 , write its reported log10 Ki.
Result: 0.85
